Test system: IGROV1 complex spheroids (HUVEC, MSC), viability % test/control
Method: Anticancer human tumor IGROV1 cell line growth inhibition [GQUAD];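 note: spheroids exposed to compounds for 7 days before readout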
Test Parameters: curve of first compound; second compound 1 µM
Description: DNA G-quadruplex Stabilizer Agents in Combinations in Complex Spheroids A high-throughput screen of multi-cell type tumor spheroids was designed to identify active combinations of DNA G-quadruplex stabilizer agents and targeted small molecules. […] Compounds. […] If the clinical Cmax for an agent had not been determined, the highest concentration tested was 10 microM. […]
pIC50: −log10 of the molar value.
pIC50 for assorted compounds

Reference set, count: 5
{"Compound": "O=C(NO)c1cnc(N2CCN(S(=O)(=O)c3ccc4ccccc4c3)CC2)nc1 + Cc1[nH]c2ccc(F)cc2c1-c1nc2c3cccnc3c3ncccc3c2[nH]1", "Measured Target": "IGROV1 complex spheroids (HUVEC, MSC), viability % test/control", "pIC50": "> 7.50"}
{"Compound": "CC(C)n1c(=O)n(C)c2cnc3cc(F)c(-c4ccc(OCCCN5CCCCC5)nc4)cc3c21 + Cc1cnc(CNC(=O)c2c(=O)c3ccc(N4CCCN(C)CC4)nc3n3c2sc2ccccc23)cn1", "Measured Target": "IGROV1 complex spheroids (HUVEC, MSC), viability % test/control", "pIC50": "> 7.50"}
{"Compound": "O=C(c1cc(Cc2n[nH]c(=O)c3ccccc23)ccc1F)N1CCN(C(=O)C2CC2)CC1 + CN(C)c1ccc(Nc2c3ccc(NC(=O)CCN4CCCC4)cc3nc3cc(NC(=O)CCN4CCCC4)ccc23)cc1", "Measured Target": "IGROV1 complex spheroids (HUVEC, MSC), viability % test/control", "pIC50": 5.31}
{"Compound": "Cc1cccc(N(C)C(=O)C2C(O)CCN2c2nc(C)cc(C(F)(F)F)c2C#N)c1 (stereo unspecified) + Cc1[nH]c2ccc(F)cc2c1-c1nc2c3cccnc3c3ncccc3c2[nH]1", "Measured Target": "IGROV1 complex spheroids (HUVEC, MSC), viability % test/control", "pIC50": "> 7.50"}
{"Compound": "CCCS(=O)(=O)Nc1ccc(F)c(C(=O)c2c[nH]c3ncc(-c4ccc(Cl)cc4)cc23)c1F + Cc1cnc(CNC(=O)c2c(=O)c3ccc(N4CCCN(C)CC4)nc3n3c2sc2ccccc23)cn1", "Measured Target": "IGROV1 complex spheroids (HUVEC, MSC), viability % test/control", "pIC50": "> 7.50"}

Okay, next one:
**Query** Tell me pIC50 of CC[C@@]1(O)C(=O)OCc2c1cc1n(c2=O)Cc2cc3c(CN(C)C)c(O)ccc3nc2-1 + Cc1cnc(CNC(=O)c2c(=O)c3ccc(N4CCCN(C)CC4)nc3n3c2sc2ccccc23)cn1 when tested on IGROV1 complex spheroids (HUVEC, MSC), viability % test/control.
**Result** > 9.00
